The reported numbers originate from the supplement of paper PMC10567573.

B1: CCDC6 (parent)
chain: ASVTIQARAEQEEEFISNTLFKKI

- Variants of: B1
- RUN_DESCRIPTION: protein stability index of a GFP-peptide fusion (GPS, HEK-293T) (PSI 1-6); higher = more stable;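 also: lentivirally expressed fusions sorted by FACS into six bins by GFP to DsRed ratio, PSI derived from sequencing read proportions per bin multiplied by bin number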
- RECORDED_CONDITIONS: c terminus: a fixed tail appended
MEASURED_PROPERTY: protein stability index
Answer as a number with no unit attached.

Solved cases below.
E14L: 1.89
E10V: 2.27
A7V: 2.8
F15I: 4.18
K23C: 2.96
I24K: 4.8

### Prompt Using the record for Q11V , report its protein stability index.
### Response 2.56
